# test_protocol: Cytotoxicity against human HOG.R5 cells
# Assay type: cell-based
API: label(entry) gives y if the entry's CC50 is strictly smaller than 40 µM; on equality or larger values it gives n.

Please review the following examples before continuing.
C=C(C)[C@@H]1CC[C@]2(C(=O)O)CC[C@]3(C)[C@H](CC[C@@H]4[C@@]5(C)CCC(=O)C(C)(C)[C@@H]5CC[C@]43C)[C@@H]12    n
C=C(C)[C@@H]1CC[C@]2(C(=O)O)CC[C@]3(C)[C@H](CC[C@@H]4[C@@]5(C)CC[C@H](O)C(C)(C)[C@@H]5CC[C@]43C)[C@@H]12    y
C/C(=C\CC[C@@H](C)[C@H]1CC[C@@]2(C)[C@@H]3CC[C@H]4C(C)(C)C(=O)CC[C@@]45C[C@@]35CC[C@]12C)C(=O)O    n
C/C(=C\CC[C@@H](C)[C@H]1CC[C@@]2(C)C3=C(CC[C@]12C)[C@@]1(C)CCC(=O)C(C)(C)[C@@H]1CC3)C(=O)O    y
CC1(C)CC[C@]2(CO)CC[C@]3(C)C(=CC[C@@H]4[C@@]5(C)CC[C@H](O)C(C)(C)[C@@H]5CC[C@]43C)[C@@H]2C1    n

Next up:
**Q:** Dear reviewer, please state whether CC1=C2[C@@H]3[C@H](CC[C@H](C)[C@]2(O)CC1=O)C3(C)C has CC50 strictly beneath 40 µM.
**A:** n

###

# Tested on: Human immunodeficiency virus 1
# test_protocol: Antiviral activity against HIV1 3B infected in human HOG.R5 assessed as inhibition of viral replication by microtiter assay
# Format: functional, organism-based
# condition_description: Human immunodeficiency virus 1, 3B
API: label(entry) gives met if the entry's IC50 is strictly smaller than 20 µM; on equality or larger values it gives not met.

C=C(C)[C@@H]1CC[C@]2(C(=O)O)CC[C@]3(C)[C@H](CC[C@@H]4[C@@]5(C)CCC(=O)C(C)(C)[C@@H]5CC[C@]43C)[C@@H]12 [BETUNOLIC ACID]    not met
CC1(C)CC[C@]2(CO)CC[C@]3(C)C(=CC[C@@H]4[C@@]5(C)CC[C@H](O)C(C)(C)[C@@H]5CC[C@]43C)[C@@H]2C1 [ERYTHRODIOL]    not met
CC(=O)/C=C/C[C@@H](C)[C@H]1CC[C@@]2(C)[C@@H]3CC[C@H]4C(C)(C)[C@@H](O)CC[C@@]45C[C@@]35CC[C@]12C    met

**Q:** Dear reviewer, please state whether CC(CCC[C@@H](C)[C@H]1CC[C@@]2(C)[C@@H]3CC[C@H]4C(C)(C)C(=O)CC[C@@]45C[C@@]35CC[C@]12C)C(=O)O (stereo not given in full) [DIHYDROSCHIZANDRONIC ACID] has IC50 strictly beneath 20 µM.
**A:** not met

**Q:** Dear reviewer, please state whether C=C(CC[C@H](O)C(=C)C)[C@H]1CC[C@]2(C)[C@@H]1CC[C@@H]1[C@@]3(C)CC[C@H](O)C(C)(C)[C@@H]3CC[C@]12C has IC50 strictly beneath 20 µM.
**A:** met

###

Known IC50 of a selection of molecules
# Tested on: Human immunodeficiency virus 1
# test_protocol: Antiviral activity against HIV1 3B infected in human HOG.R5 assessed as inhibition of viral replication by microtiter assay
# Assay type: functional, organism-based
# condition_description: Human immunodeficiency virus 1, 3B
API: value field is a number in µM; no unit string.

Some molecules with known IC50 results, for comparison:
C=C(C)[C@@H]1CC[C@]2(CO)CC[C@]3(C)[C@H](CC[C@@H]4[C@@]5(C)CC[C@H](O)C(C)(C)[C@@H]5CC[C@]43C)[C@@H]12 [BETULIN]    13.8
C=C(C/C=C/C(C)(C)O)[C@H]1CC[C@]2(C)[C@@H]1CC[C@@H]1[C@@]3(C)CC[C@H](O)C(C)(C)[C@@H]3CC[C@]12C    22.6
C=Cc1c(C)c2cc3nc(c4c5[nH]c(cc6nc(cc1[nH]2)C(C)=C6CC)c(C)c5C(=O)[C@@H]4C(=O)OC)[C@@H](CCC(=O)O)[C@@H]3C [PHEOPHORBIDE A]    2.5
C[C@H]1[C@H](C)CC[C@]2(C(=O)O)CC[C@]3(C)C(=CC[C@@H]4[C@@]5(C)CC[C@H](O)C(C)(C)[C@@H]5CC[C@]43C)[C@H]12 [URSOLIC ACID]    14.7
C=C(C)[C@@H]1CC[C@]2(C(=O)O)CC[C@]3(C)[C@H](CC[C@@H]4[C@@]5(C)CC[C@H](O)C(C)(C)[C@@H]5CC[C@]43C)[C@@H]12 [BETULINIC ACID]    32.5

From here, focus on the item given below.
**Q:** Endpoint output: IC50 of CC1=C2[C@@H]3[C@H](CC[C@H](C)[C@]2(O)CC1=O)C3(C)C . Value?
**A:** 88
